Experiment: in vivo rat PK study, aqueous liquid suspension with 0.5% w/v Hydroxypropyl Cellulose and 0.5% w/v Poloxamer F-68 (Example 8)
Conditions: oral 10 mg/kg of Compound 1, 5 mL/kg, suspension in 0.5% HPC / 0.5% Poloxamer F-68
Method: An in vivo rat PK study was conducted to compare the PK profile and bioavailability of the free base crystalline form of Compound 1 against various salt forms of Compound 1 in an aqueous liquid suspension formulation, which contained 0.5% w/v Hydroxypropyl Cellulose (Klucel GF grade) and 0.5% w/v Poloxamer F-68 (BASF Kolliphor P188). Each animal was orally administrated 10 mg/kg of Compound 1 at 5 mL/kg dosing volume (a dosing concentration of 2 mg/mL).
Where a name gives a salt, the structure may show the parent alone.
Property: AUCinf (ng·h/mL)

Cc1ccc(NC(=O)[C@H]2CCCN(C(=O)c3c(C)cccc3F)[C@H]2c2ccc(NC3CCCC3)cc2)cc1C(F)(F)F [Edisylate Salt (Form I)]    3197
Cc1ccc(NC(=O)[C@H]2CCCN(C(=O)c3c(C)cccc3F)[C@H]2c2ccc(NC3CCCC3)cc2)cc1C(F)(F)F [Camsylate Salt (Form I)]    3922

[P] Cc1ccc(NC(=O)[C@H]2CCCN(C(=O)c3c(C)cccc3F)[C@H]2c2ccc(NC3CCCC3)cc2)cc1C(F)(F)F [Napadisylate Salt (Form I)]
[Q] Cc1ccc(NC(=O)[C@H]2CCCN(C(=O)c3c(C)cccc3F)[C@H]2c2ccc(NC3CCCC3)cc2)cc1C(F)(F)F [Napsylate Salt (Form I)]
Q. Endpoint returns whichever of P and Q has the numerically higher AUCinf. Answer by quoting the chosen item's label.
A. Q
